The values you see were collected from ChEMBL document CHEMBL4706511.

# Tested on: WI-38
# EXPERIMENT_DESCRIPTION: Cytotoxicity aganist human WI-38 cells
# Type: cell-based
# pIC50 per entry
To interpret pIC50, take it as minus log10 of a concentration measured in moles per litre.

CC1(C)CNc2nc(nc(-c3cccc(C(F)(F)F)n3)n2)Nc2cc(cc(C(F)(F)F)c2)CCCCO1 : 5.00
FC(F)(F)c1cc2cc(c1)Nc1nc(nc(-c3cccc(C(F)(F)F)n3)n1)NCCOC/C=C\C2 : 5.00

Consider the additional compound presented here.
// pIC50 lookup, key: `FC(F)(F)c1cc2cc(c1)Nc1nc(nc(-c3cccc(C(F)(F)F)n3)n1)NCCOCCCC2`
5.00
